Exercise: state measured inhibition of growth at 200 µg/mL for each of the compounds provided.
system: Phytophthora cactorum; assay: Fungistatic activity against Phytophthora cactorum assessed as mycelial growth inhibition at 200 ug/ml after 4 to 8 days relative to control; format: functional; conditions: read-out: GI
Reply with a number, then the unit it belongs to.

[[record]]
record_smiles = "Oc1ccc(C(=S)NC(=S)c2cccnc2)c(O)c1"
assay_metric = "inhibition of growth at 200 µg/mL"
result = "81%"


Parameter requested: inhibition of growth at 200 µg/mL. Apply to each item below.
1. O=C(O)c1cc2cc(OCc3ccccc3)ccc2n1C(=S)c1ccc(O)cc1O
2. Oc1ccc(C(=S)NNC(=S)Nc2cccc(Cl)c2)c(O)c1
3. Oc1ccc(C(=S)n2nnc3cc(Cl)ccc32)c(O)c1
4. CC(C)(C)c1cc(NC(=S)c2ccc(O)cc2O)no1
5. COC(=O)Nc1nc2ccccc2[nH]1
6. CCOC(=O)Cc1csc(NC(=S)c2ccc(O)cc2O)n1

Output:
41%
61%
81%
61%
81%
41%

For each listed entry, give its inhibition of growth at 200 µg/mL.
1. Oc1ccc(C(=S)Nc2cc(C(F)(F)F)ccc2N2CCOCC2)c(O)c1
2. Oc1ccc(C(=S)Nc2ccc(Oc3ccccc3)cc2)c(O)c1

Output:
1. 41%
2. 21%

Consider the following items and state reported inhibition of growth at 200 µg/mL for each.
1. O=C(Nc1ccccc1)c1ccccc1NC(=S)c1ccc(O)cc1O
2. Oc1ccc(C(=S)Nc2ccccc2Sc2ccc(Cl)cc2)c(O)c1

Output:
1. 61%
2. 0%
